method.description: Plasma cysteamine after delivery of cysteamine through a nasoenteric tube into stomach, small intestine or cecum
Type: in vivo
condition.details: human, other: infused through nasoenteric tube into small intestine, 10 mg/kg/dose of base, Mean plasma cysteamine Cmax, combined cystinosis and control subjects, delivery into small intestine
measurement.label: Cmax

Asked: Identify the reported Cmax for the following entry. NCCS
Given back: 53.2 µM
